Protocol details: yeast display, Sf9 membrane polyspecificity reagent, FACS + sequencing; frameworks hold sequencing errors
Property name: polyreactivity (PSR sort gate)

Recorded polyreactivity (PSR sort gate), per entry:
QVQHVESGAGLVQAGGSLRLTCAASARTFKPYARGWYRQPPGKERELLAVISFSGGSTYYADSVKGRFTISRDNSKNTFYLQMNSLKPEDTAVYYCNAEGVTRQGGYDYWGQGTQVTVSS
high polyreactivity
QVQLVESGGGLVQAGGSLRLSCAASGSIFPVNAMGLYRQAPGKERELVAAITASGDSTYYADSVKGRFTISRDNAKNTVYLQMNSLKPEDTAVYYCNADGSYENREVYSFYYWGQGTQVTVSS
low polyreactivity
QVQLVESGGGLVHAGGSLRLSCAASGRTFLLYAMGWYRQAPGKERELVARITGRGGRTYYADSVKGRFTISRDNAKNTVYLQMNSLKPEDTAVYYCNAKGYQGQWERYDYWGQGTQVTVSS
high polyreactivity
QVQLVESGGGLVQAGGSLRLSCAASGLTFRYNAMGWYRQATGKERELVARISRNGGRTYYADSVKGRFTISRDNAKNTVYLQMNSLKPEDTAVYYCNVVYFVTTSPGYDYWGQGTQVTVSS
high polyreactivity

So, QVQLVESGGGLVQAGGSLRLSCAASGGIFYTYAMGWSRQAPGKERELVAAISARGGSTYYADSVKGRFTISRDIAKNTVYLQMNSLKPDDTAVYYCAAETYILLEYDYWGQGTQVTVSS ? Its polyreactivity (PSR sort gate) was high polyreactivity

So, QVQLVESGGGLVQAGGSLRLSCAASGRILTTYAMGWYRQAPGKERELVAAITTIGGRTYYADSVKGRFTISRDNAKNTVYLQMNSLKPEDTAVYYCAADVYYEYDYWGQGTQVTVSS ? Its polyreactivity (PSR sort gate) was low polyreactivity

So, QVQLVESGGGLVQAGGSLRVSCAASGRTFARYAKGWYRQAPGKERELVAVISRTGSTYYADSVKGRFTISRDNAKNTVYLQMNSLKPEDTAVYYCATVYYYLAYGWSYSDMDYWGQGTQVTVSS ? Its polyreactivity (PSR sort gate) was high polyreactivity

So, QVQLVESGGGLVQAGGSLRLSCAASGSTFDRNVMGWYRQAPGKERELVAAISRVSSTNYADSVKGRFTFSRDNAKNTVYLLMNSLKPEDTAVYYCAADRAGSIMNYWGQGTQVTVSS ? Its polyreactivity (PSR sort gate) was low polyreactivity

So, QVQLVESGGGLVQAGGSLRLSCAASGFYYYAMGWYRQAPGKERELVAVITYSGGSTYYADSVKGRFTISRDNAKNTVYLQMNSLKPEDTAVYYCAADDYYVALPGLYDYWGQGTQVTVSS ? Its polyreactivity (PSR sort gate) was low polyreactivity

So, QVQLVESGGGLVQAGGSLRLSCAASGRIFRYYARGWYRQAPGKEMELVAAISGSGGSTYYADSVKGRFTISRDNAQKTVYLQIHCLKPEDTAVYSCNARYRIPSGEGDHWGQGTQVTVSS ? Its polyreactivity (PSR sort gate) was low polyreactivity

So, QVQLVESGGGLVQAGGSLRLSCAASGRTFVSYDMGWYRQAPGKERELVATISWTAGSTYYADSVKGRFTISRDNAKNTVYLQMNSLKPEDTAVYYCAADVFYSIYDYWGQGTQVTVSS ? Its polyreactivity (PSR sort gate) was low polyreactivity

So, HVQLVESAGGLVQAGGRLSLSCAAYGSICDRYAMGWYRQAPGKEREKVAAIYSSGGRTYYADSVKGRFTISRDNAKNTVYLQMKSLKPEDTAVYYCNAEFWGGTPVAFSADYEYWGQGTQVTVSS ? Its polyreactivity (PSR sort gate) was high polyreactivity
